Hey, just so you know, these numbers are from ChEMBL document CHEMBL4834484.

- measurementTarget: NAD-dependent protein deacylase sirtuin-5, mitochondrial (Homo sapiens, UniProt Q9NXA8)
- Sequence (Q9NXA8 whole entry): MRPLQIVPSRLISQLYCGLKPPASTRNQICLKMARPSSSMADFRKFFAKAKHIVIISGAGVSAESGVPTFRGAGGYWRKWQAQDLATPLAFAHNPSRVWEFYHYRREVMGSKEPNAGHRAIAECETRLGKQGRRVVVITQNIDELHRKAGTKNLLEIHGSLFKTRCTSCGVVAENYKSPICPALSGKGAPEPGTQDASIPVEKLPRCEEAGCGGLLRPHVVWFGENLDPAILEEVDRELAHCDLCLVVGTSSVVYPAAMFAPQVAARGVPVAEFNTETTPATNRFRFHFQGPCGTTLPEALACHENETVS
- assaySummary: Binding affinity to chip-immobilized recombinant human SIRT5 measured after 300 secs by surface plasmon resonance method
measureName: Kd (µM)

[
  {
    "smilesInput": "CN(CCCN1c2ccccc2CCc2ccccc21)C(=O)CCCCCNC(=O)C[C@@H](Cc1ccccc1)NC(=O)OC(C)(C)C",
    "reportedResult": 2.47
  }
]

----------
- measurementTarget: NAD-dependent protein deacetylase sirtuin-3, mitochondrial (Homo sapiens)
- Sequence (Q9NTG7 whole entry): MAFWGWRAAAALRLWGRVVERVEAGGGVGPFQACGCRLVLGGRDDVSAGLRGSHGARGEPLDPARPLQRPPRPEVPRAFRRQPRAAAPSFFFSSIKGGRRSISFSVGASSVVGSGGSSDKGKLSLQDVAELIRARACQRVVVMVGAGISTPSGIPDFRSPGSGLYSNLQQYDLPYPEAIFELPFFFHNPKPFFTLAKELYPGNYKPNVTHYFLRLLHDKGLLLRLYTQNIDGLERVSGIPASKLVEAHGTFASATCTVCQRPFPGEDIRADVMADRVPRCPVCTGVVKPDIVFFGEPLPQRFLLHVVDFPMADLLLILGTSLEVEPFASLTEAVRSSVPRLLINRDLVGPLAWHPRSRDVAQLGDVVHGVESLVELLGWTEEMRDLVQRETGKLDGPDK
- assaySummary: Inhibition of human recombinant SIRT3 assessed as inhibition of substrate deacetylation using Gln-Pro-Lys-Lys- (epsilon acetyl) AMC peptide as substrate in presence of NAD+ measured by fluorescence based analysis
pKi: −log10 of the molar value.
Attribute: pKi
measureName: pKi

[
  {
    "compound": "COc1cc(CC(=O)NCCCCCCNC(=O)c2cccc(-c3cccnc3)c2)cc(OC)c1OC",
    "measurementTarget": "NAD-dependent protein deacetylase sirtuin-3, mitochondrial (Homo sapiens)",
    "reportedResult": 3.45
  },
  {
    "compound": "O=C1CC(C(=O)NCCCCCCNCC(=O)C2CC3CCC2C3)c2ccccc21 (centres undefined)",
    "measurementTarget": "NAD-dependent protein deacetylase sirtuin-3, mitochondrial (Homo sapiens)",
    "reportedResult": 3.35
  },
  {
    "compound": "O=C(NCCOCCOCCOCCNC(=O)c1cccc(-c2cccnc2)c1)c1cccc(-c2cccnc2)c1",
    "measurementTarget": "NAD-dependent protein deacetylase sirtuin-3, mitochondrial (Homo sapiens)",
    "reportedResult": 3.67
  },
  {
    "compound": "COc1cc(CC(=O)NCc2ccc(CNC(=O)c3cccc(-c4cccnc4)c3)cc2)cc(OC)c1OC",
    "measurementTarget": "NAD-dependent protein deacetylase sirtuin-3, mitochondrial (Homo sapiens)",
    "reportedResult": 3.55
  }
]
